Below, each entry is listed alongside its reported EC50.
Molecular target: T1, human CLDN6 fused to GFP, expressed on engineered HEK293T cells (HEK293T-CLDN6-mGFP) (human, UniProt P56747 1-220)
T1 construct: It calls residues 1-21 a signal peptide; also called Claudin-6; HEK293T-CLDN6-mGFP Artificial CLDN6+; not shown: mGFP tag
T1 sequence: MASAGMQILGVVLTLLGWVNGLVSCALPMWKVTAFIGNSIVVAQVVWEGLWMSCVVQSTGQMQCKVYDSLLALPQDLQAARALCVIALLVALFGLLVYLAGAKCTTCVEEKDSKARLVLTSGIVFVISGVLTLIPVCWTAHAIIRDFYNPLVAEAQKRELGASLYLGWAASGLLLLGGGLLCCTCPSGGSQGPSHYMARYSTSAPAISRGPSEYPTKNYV
Experiment: FACS, AF647-labelled mAb, HEK293T-CLDN6-mGFP cells

binder	EC50
AB5 (antibody, V domains shown, Labelled with Alexa Fluor 647 NHS ester for FACS) VH: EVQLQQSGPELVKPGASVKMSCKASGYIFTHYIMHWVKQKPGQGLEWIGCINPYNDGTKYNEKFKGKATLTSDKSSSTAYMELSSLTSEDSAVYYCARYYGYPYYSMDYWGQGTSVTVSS VL: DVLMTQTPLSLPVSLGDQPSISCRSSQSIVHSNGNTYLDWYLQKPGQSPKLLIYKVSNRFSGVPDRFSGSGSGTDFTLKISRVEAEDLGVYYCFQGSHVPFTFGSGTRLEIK	10 nM
AB12 (antibody, V domains shown, Labelled with Alexa Fluor 647 NHS ester for FACS) VH: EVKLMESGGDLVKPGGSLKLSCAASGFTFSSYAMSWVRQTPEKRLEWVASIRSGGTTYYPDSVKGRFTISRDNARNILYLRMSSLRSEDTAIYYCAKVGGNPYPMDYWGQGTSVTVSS VL: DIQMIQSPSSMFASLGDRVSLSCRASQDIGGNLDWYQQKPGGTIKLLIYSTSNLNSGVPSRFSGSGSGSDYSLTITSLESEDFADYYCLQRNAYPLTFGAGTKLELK	≥ 5000 nM
AB3 (antibody, V domains shown, Labelled with Alexa Fluor 647 for FACS and with Texas Red-X in the internalization assay) VH: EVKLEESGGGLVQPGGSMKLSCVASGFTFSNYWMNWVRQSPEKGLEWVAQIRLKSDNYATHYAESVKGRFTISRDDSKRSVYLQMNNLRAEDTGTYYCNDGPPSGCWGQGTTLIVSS VL: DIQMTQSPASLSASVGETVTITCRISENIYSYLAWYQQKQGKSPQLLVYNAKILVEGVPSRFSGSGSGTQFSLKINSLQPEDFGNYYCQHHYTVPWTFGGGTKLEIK	604 nM
